These entries and their values trace back to patent US20260232827A1.

Target: T1, human sodium-dependent phosphate transporter 2B (NaPi2b) (human, UniProt O95436 1-690)
T1 construct: UniProt ID is given as 095436 [sic]; also called hNaPi2b; Hu NaPi2b
T1 sequence: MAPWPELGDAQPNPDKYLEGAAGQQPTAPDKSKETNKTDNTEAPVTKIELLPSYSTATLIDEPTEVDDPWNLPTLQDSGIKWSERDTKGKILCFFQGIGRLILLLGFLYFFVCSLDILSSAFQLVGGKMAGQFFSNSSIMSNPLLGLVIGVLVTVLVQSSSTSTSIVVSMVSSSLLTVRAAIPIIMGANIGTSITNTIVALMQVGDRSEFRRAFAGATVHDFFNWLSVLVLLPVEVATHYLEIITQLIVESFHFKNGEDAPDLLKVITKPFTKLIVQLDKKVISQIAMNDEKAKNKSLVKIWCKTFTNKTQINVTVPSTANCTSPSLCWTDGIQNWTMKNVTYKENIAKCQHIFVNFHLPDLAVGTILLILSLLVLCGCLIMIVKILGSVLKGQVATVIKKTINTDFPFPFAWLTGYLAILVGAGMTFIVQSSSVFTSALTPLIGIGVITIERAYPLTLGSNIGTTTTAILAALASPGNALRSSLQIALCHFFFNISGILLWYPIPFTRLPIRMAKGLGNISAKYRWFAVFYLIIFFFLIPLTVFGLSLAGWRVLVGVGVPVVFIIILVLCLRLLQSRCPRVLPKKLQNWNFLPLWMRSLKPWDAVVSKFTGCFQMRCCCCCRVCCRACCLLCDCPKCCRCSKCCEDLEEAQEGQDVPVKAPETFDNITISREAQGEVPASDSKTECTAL
Test: flow cytometry, IGROV-1 cells (endogenous NaPi2b)
Set-up: unit not given here
property name: Bmax
Give a plain numeric answer without units written out.

>  <binder>
v29457 (H4L1) (antibody, human IgG1, kappa, V domains shown, Humanized IgG1/kappa; clones CL_#21506 and CL_#21507) VH: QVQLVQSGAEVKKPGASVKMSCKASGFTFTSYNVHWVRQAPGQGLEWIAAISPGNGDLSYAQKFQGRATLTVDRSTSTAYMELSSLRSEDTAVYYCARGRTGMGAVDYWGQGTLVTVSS VL: DIQMTQSPSSLSASVGDRVTITCRASQDVYSYLNWYQQKPGKAPKLLIYYTSRLQSGVPSRFSGSGSGTDFTLTISSLQPEDFATYYCQQYNIFPWTFGQGTKLEIKR

>  <Bmax>
44500

$$$$
>  <binder>
v29452 (H1L3) (antibody, human IgG1, kappa, V domains shown, Humanized IgG1/kappa) VH: QVQLVQSGAEVKKPGASVKVSCKASGFTFTSYNVHWVRQAPGQGLEWMGAISPGNGDLSYAQKFQGRVTMTRDTSTSTVYMELSSLRSEDTAVYYCARGRTGMGAVDYWGQGTLVTVSS VL: DVQMTQSPSSLSASVGDRVTITCRASQDVYSYLNWYQQKPGKAVKLLIYYTSRLQSGVPSRFSGSGSGTDYTLTISSLQPEDIATYYCQQYNIFPWTFGQGTKLEIKR

>  <Bmax>
47800

$$$$

Short answer for v29458 (H3L1) (antibody, human IgG1, kappa, V domains shown, Humanized IgG1/kappa) VH: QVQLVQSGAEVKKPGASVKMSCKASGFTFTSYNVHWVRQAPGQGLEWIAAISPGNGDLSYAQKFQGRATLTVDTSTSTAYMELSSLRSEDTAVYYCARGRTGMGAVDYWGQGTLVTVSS VL: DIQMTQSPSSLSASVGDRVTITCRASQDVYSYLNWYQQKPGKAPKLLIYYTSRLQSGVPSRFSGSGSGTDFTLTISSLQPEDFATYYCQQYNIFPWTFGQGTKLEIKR : Bmax was 40800
